# System: Human immunodeficiency virus 1
# Experimental Protocol: Antiviral activity against HIV 1 RIN harboring integrase gene infected in MT-4 cells assessed as inhibition of virus-induced cytopathic effect by MTT assay after 20 passages selected in presence of compound
# Format: functional, organism-based
# Condition Summary: Human immunodeficiency virus 1, RIN, MT4
// boundary case: EC50 equal to 20 nM maps to no; strictly smaller maps to yes

These recorded examples may help you get a feel for the data.
>  <Smiles Record>
CC(C)c1nc(CN(C)C(=O)N[C@H](C(=O)N[C@@H](Cc2ccccc2)C[C@H](O)[C@H](Cc2ccccc2)NC(=O)OCc2cncs2)C(C)C)cs1

>  <Class>
no

$$$$
>  <Smiles Record>
COc1cccc2c1c(C(=O)/C=C(\O)C(=O)O)cn2Cc1ccc(F)cc1

>  <Class>
no

$$$$
>  <Smiles Record>
Cc1nnc(C(=O)NC(C)(C)c2nc(C(=O)NCc3ccc(F)cc3)c(O)c(=O)n2C)o1

>  <Class>
yes

$$$$
>  <Smiles Record>
O=C(NCc1ccc(F)cc1)c1nc(N2CCCCS2(=O)=O)c2cccnc2c1O

>  <Class>
yes

$$$$

Check if EC50 falls below 20 nM for "c1cc(CN2CCCNCCNCCCNCC2)ccc1CN1CCCNCCNCCCNCC1" .
yes

Check if EC50 falls below 20 nM for "Cc1cn([C@H]2C[C@H](N=[N+]=[N-])[C@@H](CO)O2)c(=O)[nH]c1=O" .
no

Check if EC50 falls below 20 nM for "COc1cc2c(cc1Cc1cccc(Cl)c1F)c(=O)c(C(=O)O)cn2[C@H](CO)C(C)C" .
yes
